# EXPERIMENT NOTES: yeast display, Sf9 membrane polyspecificity reagent, FACS + sequencing; frameworks hold sequencing errors
PROPERTY NAME: polyreactivity (PSR sort gate)

Task item: polyreactivity (PSR sort gate) lookup needed for `QVQLVESGGGLVQAGGSLRLSCAASGGIFLGNAMAWYRQATGKETELVASITRGGDTSYADSVKARFTFSRDNAKNTVYLQMNSLKPEDTAVYYCNADYYSVVEYDYWGQGTQVTVSS` , thanks.
Reply: low polyreactivity

Task item: Please do the same for `QVQLVESGGGLVQAGGSLRLSCAASGSTFDYNAMGWYRQAPGKERELVAAITSTGGNTYYADSVKGRFTISRDHAKNTDYLQMNSLKPEDTAVYYCNKDVARYPYGNFDYWGQGTQVTVSS` as well.
Reply: low polyreactivity

Task item: `QVQLVESGGGLLQAGGSLRLSCAASGRIFNINAMGWYRQAPGKERELVAAISSGDSTYYADSVKGRFTISRDNAKNTVYLQMNSLKPEDSAVDYCNKDLYIWGHGTQVTVSS` , same question.
Reply: low polyreactivity
